# method_description: Approximate solubility test in solvents
# Format: physicochemical
# condition_info: organic solvent or mixture, thermodynamic from solid; solvent Ethyl acetate
measured_metric: solubility

- compound: "O=C1CC[C@H](N2Cc3cc(C(=O)N[C@H](c4ccc(Cl)cn4)C4CCC4)ccc3C2=O)C(=O)N1 [compound of formula A]"
  test_result: "< 5000 µg/mL"

###

# method_description: Approximate solubility test in solvents
# Format: physicochemical
# condition_info: organic solvent or mixture, thermodynamic from solid; solvent Acetone

- compound: "O=C1CC[C@H](N2Cc3cc(C(=O)N[C@H](c4ccc(Cl)cn4)C4CCC4)ccc3C2=O)C(=O)N1 [compound of formula A]"
  solubility: "< 5000 µg/mL"

###

# method_description: Approximate solubility test in solvents
# Type: physicochemical
# condition_info: organic solvent or mixture, thermodynamic from solid; solvent Acetone:DCM (1:1)
measured_metric: solubility

- item_smiles: "O=C1CC[C@H](N2Cc3cc(C(=O)N[C@H](c4ccc(Cl)cn4)C4CCC4)ccc3C2=O)C(=O)N1"
  test_result: "< 5000 µg/mL"

###

# method_description: Solubility of rapid solvent evaporation products in FaSSIF
# Format: physicochemical
# condition_info: fassif, thermodynamic from solid, 1 h

- compound: "O=C1CC[C@H](N2Cc3cc(C(=O)N[C@H](c4ccc(Cl)cn4)C4CCC4)ccc3C2=O)C(=O)N1 [Amorphous form of API]"
  unit_abbrev: "µg/mL"
  solubility at 1 h: 570

###

# method_description: Approximate solubility test in solvents
# Assay type: physicochemical
# condition_info: organic solvent or mixture, thermodynamic from solid; solvent ACN

- item_smiles: "O=C1CC[C@H](N2Cc3cc(C(=O)N[C@H](c4ccc(Cl)cn4)C4CCC4)ccc3C2=O)C(=O)N1"
  solubility: "< 5000 µg/mL"

###

# method_description: Solubility of rapid solvent evaporation products in FaSSIF
# Format: physicochemical
# condition_info: fassif, thermodynamic from solid, 0.25 h

- compound: "O=C1CC[C@H](N2Cc3cc(C(=O)N[C@H](c4ccc(Cl)cn4)C4CCC4)ccc3C2=O)C(=O)N1 [Amorphous form of API]"
  solubility at 0.25 h (mg/mL): 0.47

###

# method_description: Approximate solubility test in solvents
# Type: physicochemical
# condition_info: v/v), organic solvent or mixture, thermodynamic from solid; solvent DCM:EtOH (9:1)

- item_smiles: "O=C1CC[C@H](N2Cc3cc(C(=O)N[C@H](c4ccc(Cl)cn4)C4CCC4)ccc3C2=O)C(=O)N1"
  solubility: "5000 to 15000 µg/mL"

###

# method_description: Approximate solubility test in solvents
# Format: physicochemical
# condition_info: organic solvent or mixture, thermodynamic from solid; solvent DCM

- compound: "O=C1CC[C@H](N2Cc3cc(C(=O)N[C@H](c4ccc(Cl)cn4)C4CCC4)ccc3C2=O)C(=O)N1 [compound of formula A]"
  solubility: "< 5000 µg/mL"

###

# method_description: Approximate solubility test in solvents
# Assay type: physicochemical
# condition_info: organic solvent or mixture, thermodynamic from solid; solvent THF
measured_metric: solubility

- item_smiles: "O=C1CC[C@H](N2Cc3cc(C(=O)N[C@H](c4ccc(Cl)cn4)C4CCC4)ccc3C2=O)C(=O)N1"
  test_result: "< 5000 µg/mL"

###

# method_description: In vivo pharmacokinetic study of solid dispersions
# Design: species or system Sprague Dawley (SD) rats
# condition_info: Sprague Dawley, rat, po; male SD rats, intragastric 300 mg/kg (as compound of formula A), plasma

- compound: "O=C1CC[C@H](N2Cc3cc(C(=O)N[C@H](c4ccc(Cl)cn4)C4CCC4)ccc3C2=O)C(=O)N1 [Amorphous form of API]"
  unit_abbrev: "h"
  half-life: 4.06
